System: Aspergillus flavus
test details: Antifungal activity against Aspergillus flavus NCIM 524 assessed as growth inhibition after 3 to 4 days by serial plate dilution method
Assay type: functional
measure: MIC (µg/mL)
Field format: number, assumed µg/mL, no unit text.

Sample answers from the record:
CC1CCN(Cn2nc(-c3cccs3)n(-c3ccccc3)c2=S)CC1
6.25
CCCN(CCC)Cn1nc(-c2cccs2)n(-c2ccccc2)c1=S
6.25
CCn1c(-c2cccs2)nn(CN2CCOCC2)c1=S
1.56
C=CCn1c(-c2cccs2)nn(CN2CCOCC2)c1=S
1.56
CCn1c(-c2cccs2)nn(CN2CCN(c3ccccc3)CC2)c1=S
3.12

Noted for `CCn1c(-c2cccs2)nn(CN2CCN(Cc3ccccc3)CC2)c1=S` : its MIC reads 3.12

For record `CCn1c(-c2cccs2)n[nH]c1=S` the listed MIC is 12

So for `C=CCn1c(-c2cccs2)nn(CN2CCC(C)CC2)c1=S` , the logged MIC turned out to be 6.25

MIC in this record for `S=c1[nH]nc(-c2cccs2)n1-c1ccccc1` : 12

Documented MIC of `S=c1n(CN2CCOCC2)nc(-c2cccs2)n1-c1ccccc1` : 1.56

###

Tested on: Trichophyton mentagrophytes
test details: Antifungal activity against Trichophyton mentagrophytes assessed as growth inhibition after 3 to 4 days by serial plate dilution method
Type: functional
MIC by entry:

In the examples that follow, each entry is paired with its recorded MIC.
C=CCn1c(-c2cccs2)nn(CN2CCC(C)CC2)c1=S
6.25 µg/mL
CCn1c(-c2cccs2)nn(CN2CCOCC2)c1=S
1.56 µg/mL

Then this compound:
# value of MIC, Trichophyton mentagrophytes, item `Cc1cc(C2CCCCC2)n(O)c(=O)c1.NCCO` = 3.12 µg/mL

###

The entries below come with measured MIC values attached.
System: Staphylococcus aureus
test details: Antibacterial activity against Staphylococcus aureus ATCC 25923 assessed as growth inhibition after 3 to 4 days by serial plate dilution method
Type: functional
Numbers only; they are read as µg/mL.

Example entries begin here.
CCn1c(-c2cccs2)nn(CN2CCOCC2)c1=S
3.12
CCCN(CCC)Cn1nc(-c2cccs2)n(-c2ccccc2)c1=S
6.25
CCn1c(-c2cccs2)nn(CN2CCC(C)CC2)c1=S
1.56

Quick note, MIC for `C=CCn1c(-c2cccs2)nn(CN2CCC(C)CC2)c1=S` landed at 1.56

GET /value?item= `C=CCn1c(-c2cccs2)n[nH]c1=S` &field=MIC returns 25

Per the records, this compound ( `C=CCn1c(-c2cccs2)nn(CN2CCN(c3ccccc3)CC2)c1=S` ) has MIC equal to 6.25

# MIC (compound: `S=c1n(CN2CCOCC2)nc(-c2cccs2)n1-c1ccccc1` ) is 12

Notebook: `CCn1c(-c2cccs2)n[nH]c1=S` , MIC read as 12

# MIC (compound: `C=CCn1c(-c2cccs2)nn(CN2CCOCC2)c1=S` ) is 3.12

Given item `CCn1c(-c2cccs2)nn(CN2CCN(c3ccccc3)CC2)c1=S` , the value recorded as its MIC is 6.25

###

Tested on: Trichophyton mentagrophytes
test details: Antifungal activity against Trichophyton mentagrophytes assessed as growth inhibition after 3 to 4 days by serial plate dilution method
Assay type: functional
measure: MIC (µg/mL)
Lab book: enter the figure in µg/mL, no units written.

The following molecules have reported results that may help.
CC1CCN(Cn2nc(-c3cccs3)n(-c3ccccc3)c2=S)CC1
6.25
C=CCn1c(-c2cccs2)nn(CN2CCN(c3ccccc3)CC2)c1=S
3.12
C=CCn1c(-c2cccs2)nn(CN2CCOCC2)c1=S
1.56
S=c1n(CN2CCOCC2)nc(-c2cccs2)n1-c1ccccc1
1.56
C=CCn1c(-c2cccs2)n[nH]c1=S
12

// `CCCN(CCC)Cn1nc(-c2cccs2)n(-c2ccccc2)c1=S` : MIC value = 6.25

In plain terms, `CCn1c(-c2cccs2)nn(CN2CCC(C)CC2)c1=S` has a documented MIC of 6.25

The measured MIC associated with `CCn1c(-c2cccs2)nn(CN2CCN(c3cccc(C(F)(F)F)c3)CC2)c1=S` reads 3.12

Summary for this molecule, `CCn1c(-c2cccs2)nn(CN2CCN(c3ccccc3)CC2)c1=S` : MIC is 3.12

Measured MIC, `S=c1[nH]nc(-c2cccs2)n1-c1ccccc1` : 12

molecule `CCn1c(-c2cccs2)nn(CN2CCN(Cc3ccccc3)CC2)c1=S` , MIC observed: 3.12

MIC reading for `CCn1c(-c2cccs2)n[nH]c1=S` : 12

###

Test system: Radical scavenging activity
test details: Antioxidant activity of the compound assessed as DPPH free radical scavenging activity at 250 uM after 60 mins by spectrophotometric analysis relative to control
Format: functional
Decide using inhibition: a value greater than or equal to 70% is 1, a smaller one is -1.

Examples from the recorded data:
CCn1c(-c2cccs2)n[nH]c1=S
-1
C=CCn1c(-c2cccs2)n[nH]c1=S
-1
C=CCn1c(-c2cccs2)nn(CN2CCN(c3ccccc3)CC2)c1=S
1
S=c1n(CN2CCOCC2)nc(-c2cccs2)n1-c1ccccc1
1

# input Is reported inhibition greater than or equal to 70% here: `CCn1c(-c2cccs2)nn(CN2CCN(Cc3ccccc3)CC2)c1=S`
# output 1

# input Item `CCn1c(-c2cccs2)nn(CN2CCC(C)CC2)c1=S` with inhibition of 70% or above?
# output -1

###

Test system: Radical scavenging activity
test details: Antioxidant activity of the compound assessed as DPPH free radical scavenging activity at 125 uM after 60 mins by spectrophotometric analysis relative to control
Format: functional
Mark yes for reported inhibition of 60% or greater; mark no for anything smaller.

CCn1c(-c2cccs2)nn(CN2CCN(c3ccccc3)CC2)c1=S
yes
S=c1n(CN2CCOCC2)nc(-c2cccs2)n1-c1ccccc1
yes
CCn1c(-c2cccs2)nn(CN2CCC(C)CC2)c1=S
no

# input # bool: inhibition of `O=C1O[C@H]([C@@H](O)CO)C(O)=C1O` >= 60%
# output yes

# input Reported inhibition reaches at least 60% for `CCn1c(-c2cccs2)nn(CN2CCN(Cc3ccccc3)CC2)c1=S` ?
# output yes

# input Assess whether reported inhibition for `CCn1c(-c2cccs2)n[nH]c1=S` sits at 60% or higher.
# output no

# input Please tell me: is the compound `CCCN(CCC)Cn1nc(-c2cccs2)n(-c2ccccc2)c1=S` at or over 60% in terms of inhibition?
# output yes

# input // inclusive: inhibition at least 60%? input: `CC1CCN(Cn2nc(-c3cccs3)n(-c3ccccc3)c2=S)CC1`
# output no

# input Has `CCn1c(-c2cccs2)nn(CN2CCOCC2)c1=S` a recorded inhibition greater than or equal to 60%?
# output yes

# input Hi team, for `C=CCn1c(-c2cccs2)nn(CN2CCOCC2)c1=S` , is the recorded inhibition at or above 60%?
# output yes

# input Dear colleague, could you confirm whether `C=CCn1c(-c2cccs2)nn(CN2CCN(c3ccccc3)CC2)c1=S` has inhibition at or above 60%?
# output yes

# input Check if inhibition >= 60% (inclusive). Item: `C=CCn1c(-c2cccs2)n[nH]c1=S`
# output no

# input Quick check, inhibition >= 60%? `S=c1[nH]nc(-c2cccs2)n1-c1ccccc1`
# output no

# input inhibition >= 60% for `C=CCn1c(-c2cccs2)nn(CN2CCC(C)CC2)c1=S` ?
# output no

###

Tested on: Staphylococcus aureus
test details: Antibacterial activity against Staphylococcus aureus ATCC 25923 assessed as growth inhibition after 3 to 4 days by serial plate dilution method
Assay type: functional
Catalogue of molecules with associated MIC
Your answer is read as µg/mL, so omit the unit and give the number.

Answered cases to consult:
O=C(O)c1cn(C2CC2)c2cc(N3CCNCC3)c(F)cc2c1=O [CIPROFLOXACIN]
3.12
CCn1c(-c2cccs2)nn(CN2CCN(c3cccc(C(F)(F)F)c3)CC2)c1=S
1.56
S=c1[nH]nc(-c2cccs2)n1-c1ccccc1
12
CCn1c(-c2cccs2)nn(CN2CCN(Cc3ccccc3)CC2)c1=S
6.25

Could you now consider this next molecule?
Measured MIC of `CC1CCN(Cn2nc(-c3cccs3)n(-c3ccccc3)c2=S)CC1` : 1.56

###

Test system: Radical scavenging activity
test details: Antioxidant activity of the compound assessed as DPPH free radical scavenging activity at 187.5 uM after 60 mins by spectrophotometric analysis relative to control
Type: functional
Categorize each record by its inhibition using band A (below 70%), band B (70% to below 80%), band C (80% or more)

Examples from the recorded data:
C=CCn1c(-c2cccs2)nn(CN2CCOCC2)c1=S
band C
CCn1c(-c2cccs2)nn(CN2CCOCC2)c1=S
band C
S=c1[nH]nc(-c2cccs2)n1-c1ccccc1
band A
CC1CCN(Cn2nc(-c3cccs3)n(-c3ccccc3)c2=S)CC1
band A
O=C1O[C@H]([C@@H](O)CO)C(O)=C1O
band B

# input Form: Item = `CCn1c(-c2cccs2)nn(CN2CCN(Cc3ccccc3)CC2)c1=S` ; Class = ?
# output band B

# input Lab log: `C=CCn1c(-c2cccs2)nn(CN2CCN(c3ccccc3)CC2)c1=S` — assign inhibition category
# output band B

# input Could you place `CCn1c(-c2cccs2)nn(CN2CCN(c3ccccc3)CC2)c1=S` in its proper category? Many thanks.
# output band B

Where do the numbers come from? From ChEMBL document CHEMBL2375229.
